assayInfo: yeast display, Sf9 membrane polyspecificity reagent, FACS + sequencing; frameworks hold sequencing errors

sequenceRecord	polyreactivity (PSR sort gate)
QVQLVESGGGLVQAGGSLRLSCAASGFIFSKYARGCYRQAPGKEGELVAAITFSGGSTYYADSVKGRFTISRDNAKNTVYLQMHSLKPEDTAVYYCNAEGSYPDVSPVLGYDYWGQGTQVTVSS	low polyreactivity
QVQLVESGGGLDQAGGSLRLSCAASGTTFVPNDMGWYRQAPGKERELVAAITDSGGSTYYADSVWGRFTISRDNAKNTVYLQMNILKPEDTAVYYCADVQHYVTHMDYWGQGNQVTVSS	low polyreactivity

====

assayInfo: yeast display, Sf9 membrane polyspecificity reagent, FACS + sequencing; frameworks hold sequencing errors
endpointName: polyreactivity (PSR sort gate)

These recorded examples may help you get a feel for the data.
sequenceRecord	polyreactivity (PSR sort gate)
QVQLVESGGGLVQAGGSLRLSCAASGIIFKRYAMGWYRQAPGKDRELVAAISSRAGRTYYADSVKGRFTISRDNAKNNVYLQLNSLKPEDTAVYYCNTGLVYGYDYWGQGTQVTVSS	high polyreactivity
QVQLVESGRGLLQAGGSLRLSCASSGGIFPKYAMGWYRQAPGKEREFVASISYRGGSTYYADSVKGRFTISRDNAKNTVYFQMNSLKPDDTAVFYCAKPTYRFYWGDFDYWGQGSQVTVSS	low polyreactivity
QVQLVESRGGLVQAGGSLRLSCAASGIIFHFYAMGWYRQAPGKERELVAAINSRGGSTYYADSVKGRFTISRDNAKNTVYLQMNSLKPEDTAVYYCAAQYLFYGHDYWGQGTQVTVSS	low polyreactivity
QVQLEDSGGGLVQAGGSLRLICAASGSIIGTKAMGWYRQAPGKERELVAAIHWSGGTTYYADSVKGRFTISRDNAKNTVYFQMNSLKPDDTPVYDCATVFFVLPPTRFDAWGQGTLVTVSS	low polyreactivity

Look at each sequence and report its polyreactivity (PSR sort gate).
1. QVQLVESGGRLVQERGSLRLSCAASGFIFGRYAMGWYIQAPGKERELVAAITQSGGSTYYADSVKGRFTISRDNAKNTVYVQMNCLNPEDTAVYYCIAPIAYWRVHYKYGYWGQGTQVTVSS
2. QVQLVESGGGLVQAGGSLRLSCAASGRTFVYYAMGWYRQAPGKEREFVAAISRSGGHTSYADSVKGRFTISRDNAKNTVYLQMNSLKPEDTAVYYCAAEKRTQPTSREYYWGQGTQVTVSS
3. QVQLVESGGGLVQAGGSLRLSCAASGRIFWDYAMGWYRQAPGKERELVAVITFSGDSTYYADSVKGRFTISRDNAKHTVYIQMNSLKPEDTAVYYCAAARAIRQFWYVATFEYWGQGTLVTVSS
4. QVQLVESGGGLVQAGGSLRLSCAASGRIFLQYAMGWYRQAPGKERELVAGISSRGGSTYYADSVKGRFTISRDNAKNTVYLQMNSLKPEDTAVYYCAAQTKRIRYVYKHYYWGQGTQVTVSS
5. QVQLVESGGGLVQAGGSLRLSCAASGFIFVPNAMGWYRQAPGKERELVAAIRWSDGTTYYADSVKGRFTISRDNAKNNVYLQMNSLKPEDTAVYYCATDHDPRYDYWGQGTQVTVSS
6. QVQLVESGGGLVQAGGSLRLSCAASGITFNYYAMGWYRQAPGKERELVAAISLSGGRTRYADSVKGRFTISRDNAKNTVYLQMNSLKPEDTAVYYCAAYSFRYVPWPDGMGYWGQGTQVTVSS

Reply:
["low polyreactivity", "high polyreactivity", "low polyreactivity", "high polyreactivity", "high polyreactivity", "high polyreactivity"]

Query: Consider the sequence shown here: QVQLVESGGGIVQAGGSLRLSCAASGRIFVPNAMGWYRQAPGKERELVAAITSDGRTNYADSVKGRFTISRDNAKHTVYLQMNSLKPEDTAVYYCNAPVVTFGGYQDDVEYGYWGQGTQVTVSS What is its recorded polyreactivity (PSR sort gate)?
Reply: low polyreactivity
